# test_name: chemical genetic growth profiling, strain panel (AID 1159580);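 further: tested at 20 µM; growth read once vehicle control cultures reached saturation at 30 °C; 1 = growth at the plate median or of vehicle wells; lower values mean less growth of the strain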
# protocol_conditions: S. cerevisiae deletion strains, growth OD, locus YPL209C, strain IPL1, hits give low values
Screen size: about 5,500 compounds; about 2,000 (36%) were called active. Inconclusive results (about 18%) are left out. The list shows a part of the results.
quantity_kind: normalized growth
In your answer, state the number alone without any accompanying words.

Looking for the measured normalized growth of Cc1csc2ncnc(N3CCN(C(=S)Nc4ccc(C(F)(F)F)cc4)CC3)c12 , can you help? 0.977

Field entry: COC(=O)c1cc(I)c(OC(C)=O)c(I)c1 0.95

Field entry: Cc1csc2ncnc(N3CCN(C(=O)Nc4ccc(SC(F)(F)F)cc4)CC3)c12 1

Field entry: COc1ccc(OC)c2nc3c(nc12)C(=O)c1ccccc1-3 0.96

###

# test_name: chemical genetic growth profiling, strain panel (AID 1159580)
# protocol_conditions: S. cerevisiae deletion strains, growth OD, locus YLR058C, strain SHM2 (second series), hits give low values
Among all 5,500 compounds or so, about 2,000 (36%) were called active. Inconclusive results (about 18%) are left out. The list shows a part of the results.
Below, each entry is listed alongside its reported normalized growth.
In your answer, state the number alone without any accompanying words.

Here's what some known entries look like.
compound | measured_value
CC1CN=C(NC2CCCCC2)S1 (centres undefined) | 0.988
Nc1nc(Sc2ccc(C(F)(F)F)cc2[N+](=O)[O-])n[nH]1 | 1.01
O=[N+]([O-])c1cc(C(F)(F)F)ccc1Sc1ccc(Cl)cc1 | 1

Consider the record given below.
Looking for the measured normalized growth of O=C1NCCN=C(c2ccccc2)c2ccccc21 , can you help? 0.998

###

# test_name: chemical genetic growth profiling, strain panel (AID 1159580)
# protocol_conditions: S. cerevisiae deletion strains, growth OD, locus YKL160W, strain elf1
The campaign covered roughly 5,500 compounds. About 2,000 (36%) were called active. Another 18% or so got no clear call; they are omitted. Cut-off read from the data, not from the text of the source: active = normalized growth mostly below about 0.91 (no sharp cut-off); inconclusive = no clear call, values can overlap the other calls; inactive = mostly above about 0.92. Some of the results follow.
# output must be one of yes (1) for active, no (0) for inactive

Solved cases (3 shown):
molecule | qualitative_label
CC(=O)NS(=O)(=O)c1ccc(N)cc1 | no (0)
CC(=O)Nc1c(I)cc(I)c(C(=O)O)c1I | no (0)
NC(=NCCCCCCN=C(N)N=C(N)Nc1ccc(Cl)cc1)N=C(N)Nc1ccc(Cl)cc1 | yes (1)

Write down the call the test reported for this molecule. Item: O=C(O)C1=C(CSc2nnnn2CS(=O)(=O)O)CS[C@@H]2C(NC(=O)[C@H](O)c3ccccc3)C(=O)N12 (some centres undefined) no (0)

###

# test_name: chemical genetic growth profiling, strain panel (AID 1159580)
# protocol_conditions: S. cerevisiae deletion strains, growth OD, locus YPR135W, strain CTF4, hits give low values
Out of some 5,500 compounds screened, about 2,000 (36%) were called active. Not shown: some 18% with an inconclusive outcome. The list shows a part of the results.
quantity_kind: normalized growth

compound | normalized growth
CC(=O)OCCCCN1C(=O)c2ccccc2C1=O | 0.975 (inactive)

Looking for the measured normalized growth of O=C(O)C1c2ccccc2C(=O)N(Cc2ccc3c(c2)OCO3)C1c1cccnc1 (stereo unspecified) , can you help? 0.982 (inactive)

Field entry: Nc1c(Cl)cc(C(=O)Nc2cc(Cl)cc(Cl)c2)cc1Cl 0.894 (inactive)

Field entry: N#Cc1cc(I)c(C#N)c(I)c1 1.01 (inactive)

Field entry: CC1CN=C(NC2CCCCC2)S1 (stereo unspecified) 1.01 (inactive)

Field entry: COC(=O)c1cc(OC)c(OC)cc1NC(=O)Nc1cc(Cl)cc(Cl)c1 0.926 (inactive)

###

# test_name: chemical genetic growth profiling, strain panel (AID 1159580)
# protocol_conditions: S. cerevisiae deletion strains, growth OD, locus YOL078W, strain AVO1, hits give low values
Hit rate of the full screen: of about 5,500 compounds, about 2,000 (36%) were called active. Another 18% or so got no clear call; they are omitted. Some of the results follow.
Below, each entry is listed alongside its reported normalized growth.
In your answer, state the number alone without any accompanying words.

Here's what some known entries look like.
compound | measured_value
CCOC(=O)C(O)(c1ccc(NC(=O)c2ccc(Cl)c(Cl)c2)cc1)C(F)(F)F (centres undefined) | 1
N#CC(C(=O)Nc1cccc(C(F)(F)F)c1)C(=S)Nc1ccccc1Cl (centres undefined) | 0.992
O=[N+]([O-])c1cc(C(F)(F)F)ccc1Sc1n[nH]c(-c2cc(Cl)cc(Cl)c2)n1 | 0.943

Looking for the measured normalized growth of O=C(Nc1ccc(F)cc1F)c1cc(Cl)ccc1O , can you help? 0.939

Field entry: O=S(=O)(Nc1c(F)cccc1F)c1ccc(Cl)c(Cl)c1 0.938

Field entry: CC(C)(C)c1ccc(-c2cc(NC(=O)c3ccc(Cl)cc3)n[nH]2)cc1 1.01

###

# test_name: chemical genetic growth profiling, strain panel (AID 1159580);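 further: tested at 20 µM; growth read once vehicle control cultures reached saturation at 30 °C; 1 = growth at the plate median or of vehicle wells; lower values mean less growth of the strain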
# protocol_conditions: S. cerevisiae deletion strains, growth OD, locus YCR088W, strain abp1
Among all 5,500 compounds or so, about 2,000 (36%) were called active. Roughly 18% stayed inconclusive and do not appear here. No stated cut-off is given here; in the data, active means normalized growth mostly below about 0.91 (no sharp cut-off); inconclusive means no clear call, values can overlap the other calls; inactive means mostly above about 0.92. Some of the results follow.
# output must be one of T for active, F for inactive

Write down the call the test reported for this compound. Item: COc1cc(OC)c2c(OC)c(-c3ccc4c(c3)OCO4)c(=O)oc2c1 F

Field entry: COc1ccc(-c2c(O)c3c(OC)c4c(cc3oc2=O)OC(C)(C)C=C4)cc1 F

Field entry: O=C(/C=C/c1ccccc1)c1ccc(O)cc1O T

Field entry: CC(NC(C)(C)C)C(=O)c1cccc(Cl)c1 (stereo not drawn) F

Field entry: Cc1cc2nc3c(=O)[nH]c(=O)nc-3n(CC(O)C(O)C(O)CO)c2cc1C (stereo not drawn) F

Field entry: NC(Cc1ccc(Cl)cc1)C(=O)O (stereo not drawn) F

Field entry: CC(=O)OC1CCC2(O)CC1(C)CCC1C2CC1(C)C (stereo not drawn) F

Field entry: O=C(/C=C/c1ccc(O)cc1)c1ccccc1O T

###

# test_name: chemical genetic growth profiling, strain panel (AID 1159580);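 further: tested at 20 µM; growth read once vehicle control cultures reached saturation at 30 °C; 1 = growth at the plate median or of vehicle wells; lower values mean less growth of the strain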
# protocol_conditions: S. cerevisiae deletion strains, growth OD, locus YMR129W
The campaign covered roughly 5,500 compounds. About 2,000 (36%) were called active. Not shown: some 18% with an inconclusive outcome. Cut-off read from the data, not from the text of the source: active = normalized growth mostly below about 0.91 (no sharp cut-off); inconclusive = no clear call, values can overlap the other calls; inactive = mostly above about 0.92. The list shows a part of the results.
# output must be one of 1.0 for active, 0.0 for inactive

Solved cases (5 shown):
compound | qualitative_label
CN1CCN(C2=Nc3cc(Cl)ccc3Nc3ccccc32)CC1 | 0.0
COc1cc([C@@H]2c3cc4c(cc3[C@H](O)[C@H]3COC(=O)[C@H]23)OCO4)cc(OC)c1OC | 0.0
CC1(C)CC23C(=O)CCC(O)C2(C)CCC13 (centres undefined) | 0.0
O=C1C=CC(=O)c2ccccc21 | 1.0
NNCc1ccccc1 | 0.0

Consider the record given below.
Write down the call the test reported for this compound. Item: COC(=O)CC1C(C)(C(=O)c2ccoc2)CC2OCC34C(CC(=O)OC)C5(C)CC36OC3(C)OC1(C(OC(C)=O)C6(OC(C)=O)C5OC(=O)C(C)C)C24O3 (centres undefined) 0.0

###

Below, each entry is listed alongside its reported normalized growth.
# test_name: chemical genetic growth profiling, strain panel (AID 1159580);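 further: tested at 20 µM; growth read once vehicle control cultures reached saturation at 30 °C; 1 = growth at the plate median or of vehicle wells; lower values mean less growth of the strain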
# protocol_conditions: S. cerevisiae deletion strains, growth OD, locus YMR307W, strain GAS1, hits give low values
Among all 5,500 compounds or so, about 2,000 (36%) were called active. Another 18% or so got no clear call; they are omitted. The list shows a part of the results.
In your answer, state the number alone without any accompanying words.

compound | quantity_kind | measured_value
O=C1c2cccc(O)c2C(=O)c2c(O)cccc21 | normalized growth | 0.677
N[C@@H](C(=O)N[C@@H]1C(=O)N2C(C(=O)O)=C(Cl)CS[C@H]12)c1ccccc1 | normalized growth | 1.05

Looking for the measured normalized growth of NC(C(=O)N[C@@H]1C(=O)N2C(C(=O)O)=C(Cl)CS[C@H]12)c1ccccc1 (some centres not stated) , can you help? 0.998

Field entry: O=C(O)c1cc(O)c2c(c1)C(=O)c1cc(O)cc(O)c1C2=O 0.872

Field entry: CC(=O)NS(=O)(=O)c1ccc(N)cc1 0.985

Field entry: Nc1nc(Sc2ccc(C(F)(F)F)cc2[N+](=O)[O-])n[nH]1 1.24

Field entry: N/C(=N/O)c1cnccc1C(F)(F)F 0.958

Field entry: CCCCC#Cc1ccc(C(=O)NNC(=O)Nc2cc(Cl)cc(Cl)c2)o1 1

Field entry: O[C@H]1[C@H](O)[C@@H](O)C2OC[C@H]1O2 1.04

Field entry: O=C(O)c1cc(=O)cc(C(=O)O)[nH]1 1.01

Field entry: O=C1CSC(c2cccnc2)N1c1ccc(Cl)cc1 (configuration not stated) 1.01

Field entry: COC(=O)C[C@H]1C(C)(C)[C@H](O)[C@@H]2CC3=C4CC(O)O[C@@H](c5ccoc5)[C@]4(C)CCC3[C@@]1(C)C2=O (some centres not stated) 0.951
